Taken from ChEMBL document CHEMBL1126582.

# System: Human immunodeficiency virus 1
# testDetails: In vitro for inhibition of cytopathic effect of HIV-1 3B in MT-4 lymphocytes.
# Assay type: functional, organism-based
pEC50: −log10 of the molar value.
Entries and their measured pEC50 follow.
endpointName: pEC50

[[record]]
molecule = "CC(C)[C@H](NC(=O)OCc1ccccn1)C(=O)N[C@@H](Cc1ccccc1)C(O)[C@H](Cc1ccccc1)NC(=O)[C@H](NC(=O)OCc1ccccn1)C(C)C (stereo partly specified)"
endpointname = "pEC50"
measurednumber = 5.35

[[record]]
molecule = "CC(C)[C@H](NC(=O)N(C)Cc1ccccn1)C(=O)N[C@@H](Cc1ccccc1)[C@H](O)[C@@H](O)[C@H](Cc1ccccc1)NC(=O)[C@H](NC(=O)N(C)Cc1cscn1)C(C)C"
endpointname = "pEC50"
measurednumber = 6.70

[[record]]
molecule = "CC(C)[C@H](NC(=O)/C=C/c1cccnc1)C(=O)N[C@@H](Cc1ccccc1)C(O)[C@H](Cc1ccccc1)NC(=O)[C@H](NC(=O)/C=C/c1cccnc1)C(C)C (stereo partly specified)"
endpointname = "pEC50"
measurednumber = 5.55

[[record]]
molecule = "CC(C)[C@H](NC(=O)N(C)Cc1nc2ccccc2[nH]1)C(=O)N[C@@H](Cc1ccccc1)[C@@H](O)[C@@H](O)[C@H](Cc1ccccc1)NC(=O)[C@H](NC(=O)N(C)Cc1nc2ccccc2[nH]1)C(C)C"
endpointname = "pEC50"
measurednumber = 5.30

[[record]]
molecule = "CC(C)[C@H](NC(=O)OCc1ccccc1)C(=O)N[C@@H](Cc1ccccc1)[C@@H](O)[C@@H](O)[C@H](Cc1ccccc1)NC(=O)[C@H](NC(=O)OCc1ccccc1)C(C)C"
endpointname = "pEC50"
measurednumber = 6.96

[[record]]
molecule = "CC(C)[C@H](NC(=O)N(C)Cc1ccccn1)C(=O)N[C@@H](Cc1ccccc1)[C@H](O)[C@@H](O)[C@H](Cc1ccccc1)NC(=O)[C@H](NC(=O)N(C)Cc1nccs1)C(C)C"
endpointname = "pEC50"
measurednumber = 6.66

[[record]]
molecule = "CC(C)[C@H](NC(=O)OCc1ccccn1)C(=O)N[C@@H](Cc1ccccc1)[C@@H](O)[C@H](O)[C@H](Cc1ccccc1)NC(=O)[C@H](NC(=O)OCc1ccccn1)C(C)C"
endpointname = "pEC50"
measurednumber = 7.22

[[record]]
molecule = "CC(C)[C@H](NC(=O)N(C)Cc1cccnc1)C(=O)N[C@@H](Cc1ccccc1)[C@@H](O)[C@H](O)[C@H](Cc1ccccc1)NC(=O)[C@H](NC(=O)N(C)Cc1cccnc1)C(C)C"
endpointname = "pEC50"
measurednumber = 5.77

[[record]]
molecule = "CC(C)[C@H](NC(=O)/C=C/c1ccccn1)C(=O)N[C@@H](Cc1ccccc1)[C@@H](O)[C@@H](O)[C@H](Cc1ccccc1)NC(=O)[C@H](NC(=O)/C=C/c1ccccn1)C(C)C"
endpointname = "pEC50"
measurednumber = 5.96

[[record]]
molecule = "CC(C)[C@H](NC(=O)N(C)Cc1ccccn1)C(=O)N[C@@H](Cc1ccccc1)C(O)[C@H](Cc1ccccc1)NC(=O)[C@H](NC(=O)N(C)Cc1ccccn1)C(C)C (stereo partly specified)"
endpointname = "pEC50"
measurednumber = 4.60

[[record]]
molecule = "CC(C)[C@H](NS(=O)(=O)N(C)Cc1ccccn1)C(=O)N[C@@H](Cc1ccccc1)[C@H](O)[C@H](O)[C@H](Cc1ccccc1)NC(=O)[C@H](NS(=O)(=O)N(C)Cc1ccccn1)C(C)C"
endpointname = "pEC50"
measurednumber = 4.37

[[record]]
molecule = "CC(C)[C@H](NC(=O)c1ccc2ccccc2n1)C(=O)N[C@@H](Cc1ccccc1)C(O)[C@H](Cc1ccccc1)NC(=O)[C@H](NC(=O)c1ccc2ccccc2n1)C(C)C (stereo partly specified)"
endpointname = "pEC50"
measurednumber = 5.68

[[record]]
molecule = "CC(C)[C@H](NC(=O)N(C)Cc1ccccn1)C(=O)N[C@@H](Cc1ccccc1)[C@@H](O)[C@@H](O)[C@H](Cc1ccccc1)NC(=O)[C@H](NC(=O)N(C)Cc1ccccn1)C(C)C"
endpointname = "pEC50"
measurednumber = 5.82

[[record]]
molecule = "CC(C)[C@H](NC(=O)CCN1CCOCC1)C(=O)N[C@@H](Cc1ccccc1)[C@@H](O)[C@@H](O)[C@H](Cc1ccccc1)NC(=O)[C@H](NC(=O)CCN1CCOCC1)C(C)C"
endpointname = "pEC50"
measurednumber = 4.28

[[record]]
molecule = "CC(C)[C@H](NC(=O)OCc1ccncc1)C(=O)N[C@@H](Cc1ccccc1)[C@@H](O)[C@@H](O)[C@H](Cc1ccccc1)NC(=O)[C@H](NC(=O)OCc1ccncc1)C(C)C"
endpointname = "pEC50"
measurednumber = 6.21

[[record]]
molecule = "CC(C)[C@H](NC(=O)N(C)Cc1nccs1)C(=O)N[C@@H](Cc1ccccc1)[C@@H](O)[C@H](O)[C@H](Cc1ccccc1)NC(=O)[C@H](NC(=O)N(C)Cc1nccs1)C(C)C"
endpointname = "pEC50"
measurednumber = 6.41

[[record]]
molecule = "CC(C)[C@H](NC(=O)OCc1cccnc1)C(=O)N[C@@H](Cc1ccccc1)[C@@H](O)[C@H](Cc1ccccc1)NC(=O)[C@H](NC(=O)OCc1ccccc1)C(C)C"
endpointname = "pEC50"
measurednumber = 5.55

[[record]]
molecule = "CC(C)[C@H](NC(=O)N(C)Cc1cccnc1)C(=O)N[C@@H](Cc1ccccc1)[C@@H](O)[C@@H](O)[C@H](Cc1ccccc1)NC(=O)[C@H](NC(=O)N(C)Cc1cccnc1)C(C)C"
endpointname = "pEC50"
measurednumber = 5.24

[[record]]
molecule = "CC(C)[C@H](NC(=O)OCc1ccccn1)C(=O)N[C@@H](Cc1ccccc1)[C@@H](O)[C@H](Cc1ccccc1)NC(=O)[C@H](NC(=O)OCc1ccccc1)C(C)C"
endpointname = "pEC50"
measurednumber = 5.66

[[record]]
molecule = "CC(C)[C@H](NC(=O)N(C)CCc1ccccn1)C(=O)N[C@@H](Cc1ccccc1)[C@@H](O)[C@@H](O)[C@H](Cc1ccccc1)NC(=O)[C@H](NC(=O)N(C)CCc1ccccn1)C(C)C"
endpointname = "pEC50"
measurednumber = 4.89

[[record]]
molecule = "CC(C)[C@H](NC(=O)OCc1ccccc1)C(=O)N[C@@H](Cc1ccccc1)[C@@H](O)[C@H](O)[C@H](Cc1ccccc1)NC(=O)[C@H](NC(=O)OCc1ccccc1)C(C)C"
endpointname = "pEC50"
measurednumber = 7.05


---

# testDetails: t1/2 in rats after IV dose (5 mg/kg)
# Type: ADME, organism-based
# measurementContext: rat, in vivo
Entries and their measured half-life follow.
endpointName: half-life

[[record]]
compound = "CC(C)[C@H](NC(=O)OCc1ccncc1)C(=O)N[C@@H](Cc1ccccc1)C(O)[C@H](Cc1ccccc1)NC(=O)[C@H](NC(=O)OCc1ccncc1)C(C)C (stereo partly drawn)"
result = "0.57 h"

[[record]]
compound = "CC(C)[C@H](NC(=O)OCc1cccnc1)C(=O)N[C@@H](Cc1ccccc1)C(O)[C@H](Cc1ccccc1)NC(=O)[C@H](NC(=O)OCc1cccnc1)C(C)C (stereo partly drawn)"
result = "0.31 h"

[[record]]
compound = "CC(C)[C@H](NC(=O)N(C)Cc1ccccn1)C(=O)N[C@@H](Cc1ccccc1)C(O)[C@H](Cc1ccccc1)NC(=O)[C@H](NC(=O)N(C)Cc1ccccn1)C(C)C (stereo partly drawn)"
result = "0.45 h"

[[record]]
compound = "CC(C)[C@H](NS(=O)(=O)N(C)Cc1ccccn1)C(=O)N[C@@H](Cc1ccccc1)C(O)[C@H](Cc1ccccc1)NC(=O)[C@H](NS(=O)(=O)N(C)Cc1ccccn1)C(C)C (stereo partly drawn)"
result = "1.4 h"

[[record]]
compound = "CC(C)[C@H](NC(=O)N1CCN(C)CC1)C(=O)N[C@@H](Cc1ccccc1)[C@@H](O)[C@H](Cc1ccccc1)NC(=O)[C@H](NC(=O)OCc1ccccc1)C(C)C"
result = "1.1 h"

[[record]]
compound = "CC(C)[C@H](NS(=O)(=O)N(C)Cc1ccccn1)C(=O)N[C@@H](Cc1ccccc1)[C@H](O)[C@H](O)[C@H](Cc1ccccc1)NC(=O)[C@H](NS(=O)(=O)N(C)Cc1ccccn1)C(C)C"
result = "1.5 h"

[[record]]
compound = "CC(C)[C@H](NC(=O)N(C)Cc1cccnc1)C(=O)N[C@@H](Cc1ccccc1)[C@H](O)[C@H](O)[C@H](Cc1ccccc1)NC(=O)[C@H](NC(=O)N(C)Cc1cccnc1)C(C)C"
result = "1.3 h"

[[record]]
compound = "CC(C)[C@H](NC(=O)OCc1ccccn1)C(=O)N[C@@H](Cc1ccccc1)C(O)[C@H](Cc1ccccc1)NC(=O)[C@H](NC(=O)OCc1ccccn1)C(C)C (stereo partly drawn)"
result = "1.9 h"


---

# testDetails: Estimated solubility (buffer pH 7.4)
# Format: ADME
# measurementContext: read-out: S
Entries and their measured solubility follow.
endpointName: solubility (µg/mL)

[[record]]
smilescode = "CC(C)[C@H](NC(=O)N(C)Cc1cscn1)C(=O)N[C@@H](Cc1ccccc1)[C@H](O)[C@@H](O)[C@H](Cc1ccccc1)NC(=O)[C@H](NC(=O)N(C)Cc1csc(N)n1)C(C)C"
operatorsymbol = "="
measurednumber = 331

[[record]]
smilescode = "CC(C)[C@H](NC(=O)OCc1ccccc1)C(=O)N[C@@H](Cc1ccccc1)[C@@H](O)[C@@H](O)[C@H](Cc1ccccc1)NC(=O)[C@H](NC(=O)OCc1ccccc1)C(C)C"
operatorsymbol = "<"
measurednumber = 0.03

[[record]]
smilescode = "CC(C)[C@H](NC(=O)N(C)Cc1cscn1)C(=O)N[C@@H](Cc1ccccc1)[C@@H](O)[C@@H](O)[C@H](Cc1ccccc1)NC(=O)[C@H](NC(=O)N(C)Cc1cscn1)C(C)C"
operatorsymbol = "="
measurednumber = 286

[[record]]
smilescode = "CC(C)[C@H](NS(=O)(=O)CCc1ccncc1)C(=O)N[C@@H](Cc1ccccc1)[C@@H](O)[C@@H](O)[C@H](Cc1ccccc1)NC(=O)[C@H](NS(=O)(=O)CCc1ccncc1)C(C)C"
operatorsymbol = "="
measurednumber = 5.6

